B1: HDV Ribozyme (parent)
chain: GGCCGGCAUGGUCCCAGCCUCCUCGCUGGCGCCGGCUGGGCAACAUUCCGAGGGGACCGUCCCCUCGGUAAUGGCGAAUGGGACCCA

Variants of: B1
Assay: self-cleavage, relative activity (ratio to wild type); higher = more cleavage; co-transcriptional
Entries get a class label from measured self-cleavage. See ranges: small value (below 0.2), mid value (0.2 to below 0.8), large value (0.8 or more)

Below, 3 variants whose answers are already recorded.
AGCCGGCAUGGUCCCAGCCUCCUCGCUGGCGCCGGCUGGGCAACAUUCCGAGGGGACCGUCCCCUUGGUAAUGGCGAAUGGGACCCA [G1A C66U] : mid value
GGCCGGGAUGGUCCCAGCCUCCUCGCUGGUGCCGGCUGGGCAACAUUCCGAGGGGACCGUCCCCUCGGUAAUGGCGAAUGGGACCCA [C7G C30U] : small value
GGCCGGCAUGGUCCCAGCCUCCUCGCUGGGGCCGGCUGGGCAACAUUCCGAGGGGACCGUCUCCUCGGUAAUGGCGAAUGGGACCCA [C30G C62U] : small value

Request: Hi there! Could you help me figure out the category for GGCCGGCAUGGUCCCAGCCUCCUCGCGGGCGCCGGCUGGGCAACAUUCCGAGGGGACCGUCCCCUAGGUAAUGGCGAAUGGGACCCA [U27G C66A] please?
Result: mid value

Request: Also need GGCCGGCAUGGUCCCAGCCACCUCGCUGGCGCCGGCAGGGCAACAUUCCGAGGGGACCGUCCCCUCGGUAAUGGCGAAUGGGACCCA [U20A U37A] , thanks.
Result: small value

Request: Lookup GGCCGGCAUGGUCCCAGCCUCCUCGCUGCCGCCGGCUGGGCAACAUUCCGAGGGGACCCUCCCCUCGGUAAUGGCGAAUGGGACCCA [G29C G59C]
Result: small value

Request: Thanks! And GGCCGGCAUGGUCCCAGCCUCCUCGCUGGCGCCGGCAGGGCAACAUUCCGAGGGGACCAUCCCCUCGGUAAUGGCGAAUGGGACCCA [U37A G59A] ?
Result: mid value

Request: // next record GGCCGGCAUGGUCUCAGCCUCCUCGCUGGCGCCGGCUGGGCAACAUUCCGAGUGGACCGUCCCCUCGGUAAUGGCGAAUGGGACCCA [C14U G53U]
Result: large value

Request: Would you mind doing GGCCGGCAUGGUCCCAGCCUCCUCGCUGGCGCCGGCUGGGCAACAUUCCGAGGGGACCGUCACCUCGGUAAUGGCGAAUGGGAGCCA [C62A C84G] as well?
Result: mid value

Request: Query GGCCGGCAUGGUCCCAGCUUCCUCGCUGGCGCCGGCUGGGCAACAUUCCGAGGGGACCGUCCCCGCGGUAAUGGCGAAUGGGACCCA [C19U U65G] next
Result: small value

Values were extracted from the RNAGym collection of RNA variant scans (doi:10.7554/elife.80360).
